The following substances are shown together with reported Percent of Non-Transmitters which bound to peptide values.
System: maternal sera (antibodies)
assay remarks: ELISA peptide-binding of maternal sera (Example 6)
Set-up: species or system human
test context: Non-Transmitters, N = 12
Protocol: A total of 86 maternal sera samples obtained from patients of the Hospital of the University of Pennsylvania during the third trimester of pregnancy were used in this study 58 (67%) were non-transmitters and 28 (33%) were transmitters. This is approximately consistent with the national average (i.e. a rate of transmission between 25-30%). […] Because of the constraints on the volume of serum available for many of these samples, not all sera were analyzed with all the peptides. […]
reported property: Percent of Non-Transmitters which bound to peptide (%)

substance: 56: gp41 peptide, amino acids 747-767, HIV strain IIIB, SEQ ID NO: 156 (RLVNGSLALIWDDLRSLCLFS) [Peptide 56]
measure unit: %
recorded number: 0

substance: A487: gp120 peptide, amino acids 481-503, HIV strain IIIB, SEQ ID NO: 132 (ELYKYKVVKIEPLGVAPTKAKRR) [Peptide A487]
measure unit: %
recorded number: 8.3

substance: CTKAKRRVVQREKA [Peptide 497]
measure unit: %
recorded number: 0

substance: A524: gp41 peptide, amino acids 523-530, HIV strain MN, SEQ ID NO: 163 (FLGFLGAAGST) [Peptide A524]
measure unit: %
recorded number: 0

* * *

Listing of recorded Percent of Non-Transmitters which bound to peptide by entry.
Tested on: maternal sera (antibodies)
assay remarks: ELISA peptide-binding of maternal sera (Example 6)
Parameters: species or system human
test context: Non-Transmitters, N = 12
reported property: Percent of Non-Transmitters which bound to peptide (%)

substance: 41-11: gp41 peptide, amino acids 541-564, HIV strain MN, SEQ ID NO: 157 (QARQLLSGIVQQQNNLLRAIEAQQ) [Peptide 41-11]
measure unit: %
recorded number: 0

substance: T19V: Peptide T19V, Sequence ID No. 195; described in the January 1991 Catalog (TGPCTNVSTVQCTHGIRPV)
measure unit: %
recorded number: 25

substance: ELDKWASLWNWFNITNWLWY [Peptide 53]
measure unit: %
recorded number: 0

* * *

Tested on: maternal sera (antibodies)
assay remarks: ELISA peptide-binding of maternal sera (Example 6)
Design: species or system human
test context: Non-Transmitters, N = 12
Recorded measurements of Percent of Non-Transmitters which bound to peptide, one per entry
reported property: Percent of Non-Transmitters which bound to peptide (%)

substance: S19C: Peptide S19C, Sequence ID No. 196; described in the January 1991 Catalog (STQLLLNGSLAEEEVVIR)
recorded number: 0
//
substance: 58: gp41 peptide, amino acids 794-817, HIV strain IIIB, SEQ ID NO: 173 (KYWWNLLQYWSQELKNSAVSLLNA) [Peptide 58]
recorded number: 25
//
substance: C21E: gp120 peptide, amino acids 252-272, HIV strain MN, SEQ ID NO: 147 (CTHGIRPVVSTQLLLNGSLAE) [Peptide C21E]
recorded number: 0
//
substance: DREINNYTSLIHSLI [Peptide 40]
recorded number: 8.3
//
substance: A620: gp41 peptide, amino acids 615-627, HIV strain IIIB, SEQ ID NO: 172 (SNKSLEQIWNNMT) [Peptide A620]
recorded number: 8.3
//
substance: A824: gp41 peptide, amino acids 824-831, HIV strain IIIB, SEQ ID NO: 175 (EGTDRVIE) [Peptide A824]
recorded number: 0
//
substance: DC419 (IIIB): Peptide DC419 (IIIB), Sequence ID No. 191 (TGDIITLPCRIKQIINRWQV)
recorded number: 0

Reference for the values: patent US5556744A
